Attribution: the OligoGym collection

# tested-target: DGAT2
# stated-conditions: ASO, HepG2, 2.5 µM
After the bases stand the sugars from the 5' end (letter, count) and the backbone: PS all phosphorothioate, else s phosphorothioate and o phosphodiester by linkage. Methylation of C is not given here. e = 2'-O-(2-methoxyethyl) (MOE); d = 2'-deoxy (DNA)
measure: target mRNA inhibition (%)

                                   sequence  tested_target  units_symbol  assay_value
0  TGAGGCCAAGGACAGAGGTT (sugars e5 d10 e5, PS)          DGAT2             %           59
1  ATCAGCTATAGAATCAGACA (sugars e5 d10 e5, PS)          DGAT2             %           16
2  CACTCTGTGATGCTCTGGAG (sugars e5 d10 e5, PS)          DGAT2             %           60
3  GGCATGCTTCCTCCCAC (sugars e3 d10 e4, PS)          DGAT2             %           56
4  ATCCAATGCACCTTGTATTA (sugars e5 d10 e5, PS)          DGAT2             %           57
